test: Half life in Sprague-Dawley rat at 3 mg/kg, iv; format: ADME, organism-based; details: in vivo

| CHEMICAL SMILES | half-life |
| --- | --- |
| CS[C@@]1(C(=O)Nc2ccc3[nH]nc(-c4ccc(OC(C)C)nc4)c3c2)CCN(CC(=O)N2CC=C(c3ccc(-c4ncn(C)n4)cc3)CC2)C1 | 1.6 h |

====

test: Clearance in Sprague-Dawley rat at 3 mg/kg, iv; assay type: ADME, organism-based; conditions: in vivo

| COMPOUND | clearance |
| --- | --- |
| CS[C@@]1(C(=O)Nc2ccc3[nH]nc(-c4ccc(OC(C)C)nc4)c3c2)CCN(CC(=O)N2CC=C(c3ccc(-c4ncn(C)n4)cc3)CC2)C1 [MK-8353] | 1 mL/min/kg |

====

target: hERG (KCNH2) (Homo sapiens, UniProt Q12809); assay: Inhibition of human ERG at 600 nM by voltage clamp method relative to control
Sequence (Q12809 whole entry): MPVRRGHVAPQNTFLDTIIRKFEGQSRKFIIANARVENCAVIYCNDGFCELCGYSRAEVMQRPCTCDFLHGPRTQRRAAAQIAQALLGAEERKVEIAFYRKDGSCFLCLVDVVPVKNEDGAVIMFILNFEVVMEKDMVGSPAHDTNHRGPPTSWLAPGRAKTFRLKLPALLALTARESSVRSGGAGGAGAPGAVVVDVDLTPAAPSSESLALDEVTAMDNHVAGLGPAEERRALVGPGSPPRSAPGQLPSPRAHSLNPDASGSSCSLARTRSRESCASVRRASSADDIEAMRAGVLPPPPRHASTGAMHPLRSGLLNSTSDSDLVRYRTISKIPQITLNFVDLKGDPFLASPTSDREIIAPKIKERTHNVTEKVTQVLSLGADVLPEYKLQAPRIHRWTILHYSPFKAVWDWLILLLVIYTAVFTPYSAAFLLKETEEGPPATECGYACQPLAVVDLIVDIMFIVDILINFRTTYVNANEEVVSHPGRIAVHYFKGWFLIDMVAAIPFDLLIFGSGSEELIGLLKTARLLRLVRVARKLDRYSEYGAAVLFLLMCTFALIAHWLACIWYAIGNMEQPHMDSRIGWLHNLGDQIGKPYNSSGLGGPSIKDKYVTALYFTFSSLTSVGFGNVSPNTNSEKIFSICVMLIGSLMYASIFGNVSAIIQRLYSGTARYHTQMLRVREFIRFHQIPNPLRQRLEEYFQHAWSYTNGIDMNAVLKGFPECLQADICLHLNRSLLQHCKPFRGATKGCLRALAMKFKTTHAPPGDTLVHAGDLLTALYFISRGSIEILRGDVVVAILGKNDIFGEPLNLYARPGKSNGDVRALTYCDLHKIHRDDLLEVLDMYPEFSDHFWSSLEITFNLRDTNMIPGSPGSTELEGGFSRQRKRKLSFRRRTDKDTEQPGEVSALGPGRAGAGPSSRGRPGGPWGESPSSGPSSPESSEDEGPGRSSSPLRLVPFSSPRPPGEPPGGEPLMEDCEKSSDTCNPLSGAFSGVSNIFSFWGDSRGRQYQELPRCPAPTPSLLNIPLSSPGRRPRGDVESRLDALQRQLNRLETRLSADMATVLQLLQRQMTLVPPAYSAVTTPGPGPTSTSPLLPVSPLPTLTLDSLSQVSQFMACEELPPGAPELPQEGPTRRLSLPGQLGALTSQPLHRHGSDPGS

| CHEMICAL SMILES | inhibition at 0.6 µM [%] |
| --- | --- |
| CS[C@@]1(C(=O)Nc2ccc3[nH]nc(-c4ccc(OC(C)C)nc4)c3c2)CCN(CC(=O)N2CC=C(c3ccc(-c4ncn(C)n4)cc3)CC2)C1 | 16 |

====

test: Volume of distribution at steady state in CD1 mouse at 10 mg/kg, iv; type: ADME, organism-based; conditions: in vivo, read-out: Vdss

| CHEMICAL SMILES | UNIT STRING | Vd |
| --- | --- | --- |
| CS[C@@]1(C(=O)Nc2ccc3[nH]nc(-c4ccc(OC(C)C)nc4)c3c2)CCN(CC(=O)N2CC=C(c3ccc(-c4ncn(C)n4)cc3)CC2)C1 | L/kg | 3.3 |

====

test: Tmax in Sprague-Dawley rat at 10 mg/kg, po; assay type: ADME, organism-based; settings: in vivo

| COMPOUND | Tmax / h |
| --- | --- |
| CS[C@@]1(C(=O)Nc2ccc3[nH]nc(-c4ccc(OC(C)C)nc4)c3c2)CCN(CC(=O)N2CC=C(c3ccc(-c4ncn(C)n4)cc3)CC2)C1 [MK-8353] | 1.7 |

====

Parameter: IC50. Scope: all listed entries.
target: Mitogen-activated protein kinase 3 (Homo sapiens, UniProt P27361); assay: Inhibition of ERK1 (unknown origin) using peptide substrate measured after 45 mins by IMAP assay
Sequence (P27361 whole entry): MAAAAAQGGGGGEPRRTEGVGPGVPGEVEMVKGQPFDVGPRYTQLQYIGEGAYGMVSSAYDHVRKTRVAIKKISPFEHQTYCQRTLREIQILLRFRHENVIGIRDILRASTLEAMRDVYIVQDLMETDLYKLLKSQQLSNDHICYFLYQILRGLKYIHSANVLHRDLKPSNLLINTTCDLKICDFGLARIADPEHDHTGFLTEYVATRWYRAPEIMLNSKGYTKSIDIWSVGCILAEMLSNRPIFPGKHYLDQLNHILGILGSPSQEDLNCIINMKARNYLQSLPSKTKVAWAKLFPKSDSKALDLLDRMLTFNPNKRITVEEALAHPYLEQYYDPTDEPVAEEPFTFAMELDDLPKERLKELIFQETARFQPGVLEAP
MEASUREMENT LABEL: IC50 (nM)

| CHEMICAL SMILES | EXPERIMENTAL TARGET | MEASUREMENT LABEL | TEST RESULT |
| --- | --- | --- | --- |
| CS[C@@]1(C(=O)Nc2ccc3[nH]nc(-c4ccnc(OC(C)C)c4)c3c2)CCN(CC(=O)N2CC=C(c3ccc(-c4ncn(C)n4)cc3)CC2)C1 | Mitogen-activated protein kinase 3 (Homo sapiens, UniProt P27361) | IC50 | 74 |
| COc1cc(-c2n[nH]c3ccc(NC(=O)[C@]4(SC)CCN(CC(=O)N5CC=C(c6ccc(-c7ncccn7)cc6)CC5)C4)cc23)ccn1 | Mitogen-activated protein kinase 3 (Homo sapiens, UniProt P27361) | IC50 | 19 |
| CS[C@@]1(C(=O)Nc2ccc3[nH]nc(-c4ccc(F)cc4)c3c2)CCN(CC(=O)N2CCC(c3ccc(-c4ncccn4)cc3)CC2)C1 | Mitogen-activated protein kinase 3 (Homo sapiens, UniProt P27361) | IC50 | 43 |
| CS[C@@]1(C(=O)Nc2ccc3[nH]nc(-c4ccc(F)cc4)c3c2)CCN(CC(=O)N2CCN(c3ccc(-c4ncccn4)cc3)CC2)C1 | Mitogen-activated protein kinase 3 (Homo sapiens, UniProt P27361) | IC50 | 25 |
